Numbers sourced from PubChem BioAssay AID1159580.

# Protocol Details: chemical genetic growth profiling, strain panel (AID 1159580);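 further: tested at 20 µM; growth read once vehicle control cultures reached saturation at 30 °C; lower values mean less growth of the strain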
# Test Settings: S. cerevisiae deletion strains, growth OD, locus YGL173C, strain kem1
Screen size: about 5,500 compounds; about 2,000 (36%) were called active. Inconclusive results (about 18%) are left out. No stated cut-off is given here; in the data, active means normalized growth mostly below about 0.91 (no sharp cut-off); inconclusive means no clear call, values can overlap the other calls; inactive means mostly above about 0.92. Some of the results follow.
Output constraint: value belongs to TRUE for active, FALSE for inactive

A selection of reference data follows.
Compound	Assigned Label
CCOP(=S)(OCC)Oc1ccc2c(C)c(Cl)c(=O)oc2c1	FALSE
CN1CCc2cccc3c2C1Cc1ccc(O)c(O)c1-3 (stereo unspecified)	TRUE
CC[C@]12CCCN3CCc4c(n(c5ccccc45)C(=O)C1)[C@@H]32	FALSE
O=C(/C=C/c1ccc(O)c(O)c1)O[C@@H]1C[C@](O)(C(=O)O)C[C@@H](O)[C@H]1O	FALSE
CC1=C(/C=C/C(C)=C/C=C/C(C)=C\C(=O)O)C(C)(C)CCC1	FALSE
COc1ccc(C[C@H](N)C(=O)N[C@@H]2[C@@H](CO)OC(n3cnc4c(N(C)C)ncnc43)[C@@H]2O)cc1 (stereo partly specified)	FALSE

input: # outcome recorded in this test, key = `O=C(O)c1cc(=O)c(O)c2c(O)c(O)c(O)cc2c1`
output: TRUE

input: # outcome recorded in this test, key = COc1cc2c(cc1O)CC1c3c(cc(O)c(OC)c3-2)CCN1C (stereo unspecified)
output: FALSE

input: # outcome recorded in this test, key = `COP(=S)(OC)Oc1ccc(SC)c(C)c1`
output: FALSE

input: # outcome recorded in this test, key = CCCCC(CC)CN=C(N)NC(N)=NCCCCCCN=C(N)NC(N)=NCC(CC)CCCC (stereo unspecified)
output: TRUE

input: # outcome recorded in this test, key = `CC1=C(/C=C/C(C)=C/C=C/C(C)=C/C=C/C=C(C)/C=C/C=C(C)/C=C/C2=C(C)CCCC2(C)C)C(C)(C)CCC1`
output: FALSE
